Listing of recorded Emax by entry.
Target: SIRT1 (Homo sapiens)
Sequence (Q96EB6 whole entry): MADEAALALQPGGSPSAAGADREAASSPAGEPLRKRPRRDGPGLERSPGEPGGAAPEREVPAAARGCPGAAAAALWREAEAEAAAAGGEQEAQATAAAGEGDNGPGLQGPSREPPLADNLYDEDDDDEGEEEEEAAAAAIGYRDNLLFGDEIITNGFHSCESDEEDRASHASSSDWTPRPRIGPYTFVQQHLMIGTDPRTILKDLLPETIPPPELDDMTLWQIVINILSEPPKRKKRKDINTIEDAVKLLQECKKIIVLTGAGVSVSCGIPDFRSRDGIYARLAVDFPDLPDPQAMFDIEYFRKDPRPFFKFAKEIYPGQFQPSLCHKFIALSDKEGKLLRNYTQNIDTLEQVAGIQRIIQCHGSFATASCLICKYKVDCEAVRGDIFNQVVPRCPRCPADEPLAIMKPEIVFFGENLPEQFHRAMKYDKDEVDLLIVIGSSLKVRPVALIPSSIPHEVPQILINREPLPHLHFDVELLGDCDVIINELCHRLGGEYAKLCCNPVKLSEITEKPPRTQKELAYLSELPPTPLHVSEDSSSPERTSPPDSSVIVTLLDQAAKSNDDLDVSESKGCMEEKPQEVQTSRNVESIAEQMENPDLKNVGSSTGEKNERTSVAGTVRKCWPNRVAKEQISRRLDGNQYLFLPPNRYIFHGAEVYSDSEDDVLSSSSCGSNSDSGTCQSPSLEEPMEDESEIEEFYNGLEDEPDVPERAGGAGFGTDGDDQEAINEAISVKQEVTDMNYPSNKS
Test: TAMRA based mass spectrometry assay of SIRT1 activity
Format: biochemical
Details: TAMRA assay; percent maximum fold activation; read-out: TAMRA % Fold Act

| MOLECULE | MEASURED TARGET | Emax |
| --- | --- | --- |
| O=C(Nc1cncc(OCC(O)CO)n1)c1cnc2ccc(-c3ccccc3C(F)(F)F)nn12 (stereo not shown) | SIRT1 (Homo sapiens) | ≥ 350% |
| Cc1nc2ccc(-c3ccccc3C(F)(F)F)nn2c1NC(=O)c1ncccn1 | SIRT1 (Homo sapiens) | ≥ 350% |
| COCCOc1cc(NC(=O)c2cnc3c(C)cc(-c4ccccc4C(F)(F)F)nn23)ncn1 | SIRT1 (Homo sapiens) | < 350% |
| O=C(Nc1cnc2ccc(-c3ccccc3Cl)nn12)c1ccncn1 | SIRT1 (Homo sapiens) | < 350% |
| Cc1cc(OCC(O)CO)nc(NC(=O)c2cnc3ccc(-c4ccccc4F)nn23)n1 (stereo not shown) | SIRT1 (Homo sapiens) | < 350% |
| O=C(Nc1cnn2ccc(-c3ccccc3C(F)(F)F)nc12)c1cccc(N2CCOCC2)n1 | SIRT1 (Homo sapiens) | ≥ 350% |
| Cc1cnc(C(=O)Nc2cnc3ccc(-c4ccccc4C#N)nn23)s1 | SIRT1 (Homo sapiens) | ≥ 350% |
| Cc1nc2ccc(-c3ccccc3Cl)nn2c1C(=O)Nc1cccnn1 | SIRT1 (Homo sapiens) | ≥ 350% |
| Cc1cccc(NC(=O)c2c(C)nn3ccc(-c4ccccc4C(F)(F)F)nc23)n1 | SIRT1 (Homo sapiens) | ≥ 350% |
| O=C(Nc1cnn2ccc(-c3ccccc3C(F)(F)F)nc12)c1cccc(-n2cnnc2)n1 | SIRT1 (Homo sapiens) | ≥ 350% |
